What IC50 was measured for each of the following?
Molecular target: β5c subunit of the 20S proteasome (Homo sapiens, UniProt P20618+P28074)
Construct: The proteasome tested in the present disclosure was derived from Raji cells; endogenous in cells; host or cells: Raji cells
Assay: Proteasome inhibitory activity, β5c subunit (Raji cells treated with compound, lysed, Suc-LLVY-AMC substrate)
Assay type: cell-based
Conditions: proteasome from Raji cells incubated with compound 4 h

Below, 2 molecules whose answers are already recorded.
molecule	IC50
O=C(CCC(=O)N[C@@H](Cc1ccccc1)B(O)O)NCc1ccccc1	50 to 200 nM
CC(C)C[C@H](NC(=O)C(C)C(=O)NCc1ccccc1)B(O)O (some centres unmarked)	50 to 200 nM

Parameter requested: IC50. Apply to each item below.
1. Cc1ccc(C[C@H](NC(=O)C(C)C(=O)NC2CCCCC2)B(O)O)cc1 (some centres unmarked)
2. CC(C)C(C(=O)NCc1ccc(Cl)cc1Cl)C(=O)N[C@@H](Cc1coc2ccccc12)B(O)O (some centres unmarked)
3. COc1cccc(CNC(=O)C(C)C(=O)N[C@@H](Cc2coc3ccccc23)B(O)O)c1 (some centres unmarked)
4. COc1cccc(CNC(=O)CC(=O)N[C@@H](CC(C)C)B(O)O)c1

1. ≤ 50 nM
2. ≤ 50 nM
3. ≤ 50 nM
4. ≤ 50 nM

---

Kindly supply the reported IC50 values for the records listed here.
Biological target: β5i subunit of the 20S proteasome (Homo sapiens, UniProt P20618+P28062)
Construct: The proteasome tested in the present disclosure was derived from Raji cells; endogenous in cells; host or cells: Raji cells
Assay: Proteasome inhibitory activity, β5i subunit (Raji cells treated with compound, lysed, Ac-ANW-AMC substrate)
Type: cell-based
Details: proteasome from Raji cells incubated with compound 4 h

Example entries and their recorded answers appear below.
molecule	assay_system	assay_metric	reported_result
COc1cccc(CNC(=O)C(C)C(=O)N[C@@H](Cc2coc3ccccc23)B(O)O)c1 (stereo partly shown)	β5i subunit of the 20S proteasome (Homo sapiens, UniProt P20618+P28062)	IC50	≤ 50 nM
O=C(CCC(=O)N[C@@H](Cc1ccccc1)B(O)O)NCc1ccccc1	β5i subunit of the 20S proteasome (Homo sapiens, UniProt P20618+P28062)	IC50	≤ 50 nM
COc1cccc(CCNC(=O)C(C)C(=O)N[C@@H](Cc2ccc(-c3ccccc3)cc2)B(O)O)c1 (stereo partly shown)	β5i subunit of the 20S proteasome (Homo sapiens, UniProt P20618+P28062)	IC50	≤ 50 nM
CC(C)C[C@H](NC(=O)/C=C/C(=O)NCc1cccc(-c2ccccc2)n1)B(O)O	β5i subunit of the 20S proteasome (Homo sapiens, UniProt P20618+P28062)	IC50	50 to 200 nM
COc1cccc(CNC(=O)C(C)C(=O)N[C@@H](Cc2ccc(-c3ccccc3)cc2)B(O)O)c1 (stereo partly shown)	β5i subunit of the 20S proteasome (Homo sapiens, UniProt P20618+P28062)	IC50	≤ 50 nM
CC(C(=O)NCc1ccccc1)C(=O)N[C@@H](Cc1ccccc1)B(O)O (stereo partly shown)	β5i subunit of the 20S proteasome (Homo sapiens, UniProt P20618+P28062)	IC50	≤ 50 nM

Below are 7 molecules. Give each one its IC50.
1. Cc1ccc(C[C@H](NC(=O)C(C)C(=O)NCc2ccc(Cl)cc2Cl)B(O)O)cc1 (stereo partly shown)
2. CC(C)C[C@H](NC(=O)C(C)C(=O)NCc1ccccc1)B(O)O (stereo partly shown)
3. Cc1ccc(C[C@H](NC(=O)C(C)C(=O)NC2CCCCC2)B(O)O)cc1 (stereo partly shown)
4. COc1cccc(CNC(=O)C(CC2CC2)C(=O)N[C@@H](Cc2ccccc2)B(O)O)c1 (stereo partly shown)
5. Cc1ccc(C[C@H](NC(=O)C(C)C(=O)NCc2ccccc2)B(O)O)cc1 (stereo partly shown)
6. CC(C)C[C@H](NC(=O)C(C)C(=O)NC1CCCCC1)B(O)O (stereo partly shown)
7. COc1cccc(CNC(=O)C(C)C(=O)N[C@@H](Cc2ccc(C)cc2)B(O)O)c1 (stereo partly shown)

["≤ 50 nM", "50 to 200 nM", "≤ 50 nM", "≤ 50 nM", "50 to 200 nM", "≤ 50 nM", "≤ 50 nM"]

---

Target: β5i subunit of the 20S proteasome (Homo sapiens, UniProt P20618+P28062)
Construct: The proteasome tested in the present disclosure was derived from Raji cells; endogenous in cells; host or cells: Raji cells
Assay: Proteasome inhibitory activity, β5i subunit (Raji cells treated with compound, lysed, Ac-ANW-AMC substrate)
Assay type: cell-based
Settings: proteasome from Raji cells incubated with compound 4 h
assay_metric: IC50

The cases that follow already have their IC50 on record.
molecule	assay_system	IC50
COc1cccc(CNC(=O)CC(=O)N[C@@H](Cc2coc3ccccc23)B(O)O)c1 [Example 46]	β5i subunit of the 20S proteasome (Homo sapiens, UniProt P20618+P28062)	≤ 50 nM
COc1cccc(CNC(=O)CC(=O)N[C@@H](Cc2ccc(C)cc2)B(O)O)c1 [Example 50]	β5i subunit of the 20S proteasome (Homo sapiens, UniProt P20618+P28062)	≤ 50 nM
COc1cccc(CNC(=O)C(C(=O)N[C@@H](Cc2ccc(C)cc2)B(O)O)C(C)C)c1 (some centres unmarked) [Example 87]	β5i subunit of the 20S proteasome (Homo sapiens, UniProt P20618+P28062)	≤ 50 nM
Cc1ccc(C[C@H](NC(=O)C(C)(F)C(=O)NCc2cccc(-c3ccccc3)n2)B(O)O)cc1 (some centres unmarked) [Example 56]	β5i subunit of the 20S proteasome (Homo sapiens, UniProt P20618+P28062)	≤ 50 nM
COc1cccc(CNC(=O)C(C(=O)N[C@@H](Cc2coc3ccccc23)B(O)O)C(C)C)c1 (some centres unmarked) [Example 75]	β5i subunit of the 20S proteasome (Homo sapiens, UniProt P20618+P28062)	≤ 50 nM
COc1cccc(CCNC(=O)C(C)C(=O)N[C@@H](Cc2coc3ccccc23)B(O)O)c1 (some centres unmarked) [Example 63]	β5i subunit of the 20S proteasome (Homo sapiens, UniProt P20618+P28062)	≤ 50 nM

Report IC50 for every entry below.
1. CC(C(=O)NCc1cccc(C(F)(F)F)c1)C(=O)N[C@@H](Cc1coc2ccccc12)B(O)O (some centres unmarked) [Example 77]
2. CC(C(=O)Nc1ccccc1)C(=O)N[C@@H](Cc1ccccc1)B(O)O (some centres unmarked) [Example 47]

["≤ 50 nM", "≤ 50 nM"]

---

What concentration at 2 h was measured for each of the following?
Experiment: Blood concentration measurement of orally-administrated mice
Assay type: in vivo, C57BL/6JNifdc mice
Details: C57BL/6JNifdc, mouse, plasma, oral, 30 mg/kg, 2.0 h, read-out: Average blood compound concentration (μM) 2.0 h
Answers are plain numbers, in µM.

compound	value_units	reported_result
CC(C)C[C@H](NC(=O)[C@H](Cc1ccccc1)NC(=O)c1cnccn1)B(O)O [Bortezomib, bortezomib, reference compound]	µM	0.9
COc1cccc(CCNC(=O)C(C)C(=O)N[C@@H](Cc2coc3ccccc23)B(O)O)c1 (stereo partly drawn) [Example 63]	µM	16

Query compound follows.
Report concentration at 2 h, nothing else, for this compound: Cc1ccc(C[C@H](NC(=O)C(C)C(=O)NCc2ccc(Cl)cc2Cl)B(O)O)cc1 (stereo partly drawn) [Example 59]
16

---

Assay: Blood concentration measurement of orally-administrated mice
Format: in vivo, C57BL/6JNifdc mice
Details: C57BL/6JNifdc, mouse, plasma, oral, 30 mg/kg, 1.5 h, read-out: Average blood compound concentration (μM) 1.5 h
assay_metric: concentration at 1.5 h
Provide the measurement as a number trailed by its unit.

Take a look at these entries with their results.
molecule	concentration at 1.5 h
COc1cccc(CCNC(=O)C(C)C(=O)N[C@@H](Cc2coc3ccccc23)B(O)O)c1 (stereo partly drawn)	15 µM
CC(C)C[C@H](NC(=O)[C@H](Cc1ccccc1)NC(=O)c1cnccn1)B(O)O [Bortezomib, bortezomib, reference compound]	1 µM

Consider the additional molecule presented here.
Look up and state reported concentration at 1.5 h for Cc1ccc(C[C@H](NC(=O)C(C)C(=O)NCc2ccc(Cl)cc2Cl)B(O)O)cc1 (stereo partly drawn)
22 µM

---

Target: β5c subunit of the 20S proteasome (Homo sapiens, UniProt P20618+P28074)
Construct: The proteasome tested in the present disclosure was derived from Raji cells; endogenous in cells; host or cells: Raji cells
Assay: Proteasome inhibitory activity, β5c subunit (Raji cells treated with compound, lysed, Suc-LLVY-AMC substrate)
Assay type: cell-based
Settings: proteasome from Raji cells incubated with compound 4 h
Kindly supply the reported IC50 values for the records listed here.

A selection of reference data follows.
compound	reported_result
COc1cccc(CCNC(=O)C(C)C(=O)N[C@@H](Cc2ccc(C)cc2)B(O)O)c1 (stereo partly drawn) [Example 62]	≤ 50 nM
CC(C(=O)NCc1cccc(-c2ccccc2)n1)C(=O)N[C@@H](Cc1ccc(-c2ccccc2)cc1)B(O)O (stereo partly drawn) [Example 58]	≤ 50 nM
Cc1ccc(C[C@H](NC(=O)C(C)C(=O)NCc2cccc(-c3ccccc3)n2)B(O)O)cc1 (stereo partly drawn) [Example 45]	≤ 50 nM

Required: IC50, one value per compound below.
1. CC(C(=O)NCc1cccc(C(F)(F)F)c1)C(=O)N[C@@H](Cc1coc2ccccc12)B(O)O (stereo partly drawn) [Example 77]
2. Cc1ccc(C[C@H](NC(=O)C(C(=O)NCc2ccc(Cl)cc2Cl)C(C)C)B(O)O)cc1 (stereo partly drawn) [Example 88]
3. COc1cccc(CNC(=O)C(C)C(=O)N[C@@H](Cc2ccc(-c3ccccc3)cc2)B(O)O)c1 (stereo partly drawn) [Example 36]
4. COc1cccc(CCNC(=O)C(C)C(=O)N[C@@H](Cc2ccc(-c3ccccc3)cc2)B(O)O)c1 (stereo partly drawn) [Example 64]
5. COc1cccc(CCNC(=O)C(C)C(=O)N[C@@H](Cc2coc3ccccc23)B(O)O)c1 (stereo partly drawn) [Example 63]
6. CC(C)C[C@H](NC(=O)/C=C/C(=O)NCc1cccc(-c2ccccc2)n1)B(O)O [Example 13]

["≤ 50 nM", "50 to 200 nM", "≤ 50 nM", "≤ 50 nM", "≤ 50 nM", "50 to 200 nM"]
